Target: Carbonic anhydrase 3 (Homo sapiens, UniProt P07451)
Sequence (P07451 whole entry): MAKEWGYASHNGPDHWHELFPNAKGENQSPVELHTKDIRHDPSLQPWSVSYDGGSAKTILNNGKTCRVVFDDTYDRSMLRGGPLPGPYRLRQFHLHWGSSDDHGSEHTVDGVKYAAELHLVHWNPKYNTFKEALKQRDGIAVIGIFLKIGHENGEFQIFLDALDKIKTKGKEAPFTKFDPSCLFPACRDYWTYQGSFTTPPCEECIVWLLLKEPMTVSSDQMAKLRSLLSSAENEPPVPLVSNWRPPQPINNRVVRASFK
A collection of compounds and their measured Ki
Write the number in µM without appending the unit.

Here are 2 compounds together with their reported answers.
> print(dat)
                              compound  property.name  observed.result
1              O=C(O)c1cc(O)c(O)c(O)c1             Ki             7.49
2  COc1cc(/C=C/C(=O)O)ccc1O [FERULATE]             Ki             11.1

Consider now this further compound.
O=c1c(O)c(-c2ccc(O)c(O)c2)oc2cc(O)cc(O)c12 has a reported Ki of 8.1

* * *

So I've got Ki readings for Carbonic anhydrase 6 (Homo sapiens, UniProt P23280), take a look.
Respond with the bare value in µM.

> print(dat)
                                   compound                         system.under.test  observed.result
1     O=C(O)c1cc(O)c(O)c(O)c1 [GALLIC ACID]  Carbonic anhydrase 6 (Homo sapiens, UniProt P23280)             6.13
2       COc1cc(/C=C/C(=O)O)ccc1O [FERULATE]  Carbonic anhydrase 6 (Homo sapiens, UniProt P23280)             8.45
3  O=c1c(O)c(-c2ccc(O)c(O)c2)oc2cc(O)cc(O)c12 [QUERCETIN]  Carbonic anhydrase 6 (Homo sapiens, UniProt P23280)             6.17

Now look at this one.
// recorded Ki for COc1cc(C(=O)O)cc(OC)c1O [SYRINGIC ACID] : 7.55

* * *

These records show pKi for Carbonic anhydrase 4 (Homo sapiens, UniProt P22748).
Friendly reminder that pKi comes from taking -log10 of the concentration in mol/L.

// solved cases for pKi follow
> print(dat)
                                   molecule                         system.under.test  observed.result
1                    O=C(O)/C=C/c1ccc(O)cc1  Carbonic anhydrase 4 (Homo sapiens, UniProt P22748)             5.02
2  O=c1oc2c(O)c(O)cc3c(=O)oc4c(O)c(O)cc1c4c23  Carbonic anhydrase 4 (Homo sapiens, UniProt P22748)             5.04
3                   O=C(O)c1cc(O)c(O)c(O)c1  Carbonic anhydrase 4 (Homo sapiens, UniProt P22748)             5.01
4  O=c1c(O)c(-c2ccc(O)c(O)c2)oc2cc(O)cc(O)c12  Carbonic anhydrase 4 (Homo sapiens, UniProt P22748)             5.10

Form field pKi for item COc1cc(/C=C/C(=O)O)ccc1O [FERULATE] on Carbonic anhydrase 4 (Homo sapiens, UniProt P22748): 4.97

* * *

Molecular target: Carbonic anhydrase 13 (Mus musculus, UniProt Q9D6N1)
Sequence (Q9D6N1 whole entry): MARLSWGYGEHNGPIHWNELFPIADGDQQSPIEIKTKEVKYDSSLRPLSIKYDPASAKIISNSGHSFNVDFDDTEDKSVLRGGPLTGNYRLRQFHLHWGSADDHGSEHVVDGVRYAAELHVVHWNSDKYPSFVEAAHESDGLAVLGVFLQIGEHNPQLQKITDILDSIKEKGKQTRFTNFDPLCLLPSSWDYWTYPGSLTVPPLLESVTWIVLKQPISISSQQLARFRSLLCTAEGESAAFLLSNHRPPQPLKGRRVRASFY
PROPERTY_NAME: pKi
pKi is defined as minus the log10 of a concentration measured in mol/L.

> print(dat)
                                   molecule                         system.under.test  property.name  observed.result
1   COc1cc(C(=O)O)cc(OC)c1O [SYRINGIC ACID]  Carbonic anhydrase 13 (Mus musculus, UniProt Q9D6N1)            pKi             4.96
2       COc1cc(/C=C/C(=O)O)ccc1O [FERULATE]  Carbonic anhydrase 13 (Mus musculus, UniProt Q9D6N1)            pKi             4.91
3     O=C(O)c1cc(O)c(O)c(O)c1 [GALLIC ACID]  Carbonic anhydrase 13 (Mus musculus, UniProt Q9D6N1)            pKi             5.01
4  O=c1c(O)c(-c2ccc(O)c(O)c2)oc2cc(O)cc(O)c12 [QUERCETIN]  Carbonic anhydrase 13 (Mus musculus, UniProt Q9D6N1)            pKi             5.04

Kindly consider the entry below.
// returns pKi for O=C(O)/C=C/c1ccc(O)cc1 [COUMARIC ACID] with Carbonic anhydrase 13 (Mus musculus, UniProt Q9D6N1); value = 5.00

* * *

The listing below reports pKi for compounds tested on Carbonic anhydrase 1 (Homo sapiens, UniProt P00915).
Sequence (P00915 whole entry): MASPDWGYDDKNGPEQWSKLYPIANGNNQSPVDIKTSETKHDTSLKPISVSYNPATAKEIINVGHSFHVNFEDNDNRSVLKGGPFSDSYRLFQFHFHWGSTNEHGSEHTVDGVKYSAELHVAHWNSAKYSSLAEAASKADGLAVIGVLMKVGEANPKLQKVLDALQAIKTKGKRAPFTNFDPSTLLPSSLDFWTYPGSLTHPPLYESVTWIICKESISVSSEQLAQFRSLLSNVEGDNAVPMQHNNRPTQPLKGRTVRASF
For clarity, pKi is expressed as the negative log10 of concentration in mol/L.

# pKi (compound: O=C(O)/C=C/c1ccc(O)cc1 ) is 5.97

Entry under test: O=C(O)c1ccc(O)cc1 . Its pKi was 6.04

For this compound ( COc1cc(/C=C/C(=O)O)ccc1O [FERULATE] ), measured pKi is 5.54

pKi reading for O=c1c(O)c(-c2ccc(O)c(O)c2)oc2cc(O)cc(O)c12 : 5.57

Field pKi (entry O=C(O)c1cc(O)c(O)c(O)c1 ) reads 5.49

* * *

So I've got Ki readings for Carbonic anhydrase 7 (Homo sapiens, UniProt P43166), take a look.
API: value field is a number in µM; no unit string.

> print(dat)
                                   compound  observed.result
1                   O=C(O)c1cc(O)c(O)c(O)c1             6.07
2  O=c1c(O)c(-c2ccc(O)c(O)c2)oc2cc(O)cc(O)c12             4.84
3       COc1cc(/C=C/C(=O)O)ccc1O [FERULATE]             7.41

The compound identified as O=C(O)c1ccc(O)cc1 registered its Ki at 4.08

* * *

These compounds were tested on UniProtKB Q9Y2D0; pKi is the recorded read-out.
Sequence (Q9Y2D0 whole entry): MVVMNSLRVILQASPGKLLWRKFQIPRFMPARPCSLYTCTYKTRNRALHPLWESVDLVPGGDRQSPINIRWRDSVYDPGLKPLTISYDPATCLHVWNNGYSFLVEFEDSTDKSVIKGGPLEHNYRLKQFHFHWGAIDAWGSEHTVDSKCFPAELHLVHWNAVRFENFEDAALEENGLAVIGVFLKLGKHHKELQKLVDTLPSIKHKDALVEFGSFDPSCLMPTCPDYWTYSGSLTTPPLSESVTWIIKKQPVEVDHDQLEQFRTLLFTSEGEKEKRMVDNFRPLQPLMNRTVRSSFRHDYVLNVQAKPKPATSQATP
Please express pKi as -log10 of the molar concentration.

Study these solved cases before continuing.
> print(dat)
                                  compound  property.name  observed.result
1      COc1cc(/C=C/C(=O)O)ccc1O [FERULATE]            pKi             4.98
2   O=C(O)/C=C/c1ccc(O)cc1 [COUMARIC ACID]            pKi             5.11
3  COc1cc(C(=O)O)cc(OC)c1O [SYRINGIC ACID]            pKi             4.45
4    O=C(O)c1cc(O)c(O)c(O)c1 [GALLIC ACID]            pKi             5.00

Given item O=c1c(O)c(-c2ccc(O)c(O)c2)oc2cc(O)cc(O)c12 [QUERCETIN] , the value recorded as its pKi is 4.92

* * *

Biological target: Carbonic anhydrase 12 (Homo sapiens)
Sequence (O43570 whole entry): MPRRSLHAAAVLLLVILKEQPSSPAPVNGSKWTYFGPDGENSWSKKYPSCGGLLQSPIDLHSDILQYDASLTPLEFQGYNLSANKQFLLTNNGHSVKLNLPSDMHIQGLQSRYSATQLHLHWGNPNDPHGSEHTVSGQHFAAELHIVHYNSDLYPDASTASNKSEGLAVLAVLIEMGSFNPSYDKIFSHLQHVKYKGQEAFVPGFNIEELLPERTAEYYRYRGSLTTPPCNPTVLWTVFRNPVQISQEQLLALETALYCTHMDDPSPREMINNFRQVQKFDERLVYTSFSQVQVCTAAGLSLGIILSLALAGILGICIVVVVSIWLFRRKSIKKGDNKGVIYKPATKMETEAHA
# note: exactly 9 µM is not below, so it is FALSE; use TRUE for Ki strictly under it

> print(dat)
                                 compound                     system.under.test  class.label
1   O=C(O)c1cc(O)c(O)c(O)c1 [GALLIC ACID]  Carbonic anhydrase 12 (Homo sapiens)         TRUE
2     COc1cc(/C=C/C(=O)O)ccc1O [FERULATE]  Carbonic anhydrase 12 (Homo sapiens)        FALSE
3  O=C(O)/C=C/c1ccc(O)cc1 [COUMARIC ACID]  Carbonic anhydrase 12 (Homo sapiens)         TRUE

Now look at this entry.
Exam item: Below 9 µM on Ki? Entry O=c1c(O)c(-c2ccc(O)c(O)c2)oc2cc(O)cc(O)c12 [QUERCETIN]
Marked response: FALSE

* * *

Ki, UniProt:Q9ULX7: measured values
Sequence (Q9ULX7 whole entry): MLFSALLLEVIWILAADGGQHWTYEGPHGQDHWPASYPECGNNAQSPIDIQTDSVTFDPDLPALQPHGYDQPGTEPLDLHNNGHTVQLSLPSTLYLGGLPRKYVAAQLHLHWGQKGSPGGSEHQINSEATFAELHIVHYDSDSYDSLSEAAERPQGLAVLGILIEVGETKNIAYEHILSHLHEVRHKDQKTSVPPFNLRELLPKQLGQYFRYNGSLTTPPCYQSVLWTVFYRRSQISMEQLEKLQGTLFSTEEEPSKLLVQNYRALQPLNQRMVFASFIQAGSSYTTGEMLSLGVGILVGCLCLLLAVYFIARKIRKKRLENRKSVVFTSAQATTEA
Give the value, in units of µM, as a plain number.

> print(dat)
                                  compound  observed.result
1  COc1cc(C(=O)O)cc(OC)c1O [SYRINGIC ACID]             9.14
2    O=C(O)c1cc(O)c(O)c(O)c1 [GALLIC ACID]             7.03
3      COc1cc(/C=C/C(=O)O)ccc1O [FERULATE]             9.43

// switching to the query compound
So the reported Ki for O=c1c(O)c(-c2ccc(O)c(O)c2)oc2cc(O)cc(O)c12 [QUERCETIN] , on UniProt:Q9ULX7, turned out to be 5.41

* * *

The compounds below have reported pKi for Carbonic anhydrase 2 (Homo sapiens, UniProt P00918).
Please report pKi as the negative decimal logarithm of the molar concentration, giving only the number.

> print(dat)
                              compound                         system.under.test  observed.result
1              O=C(O)c1cc(O)c(O)c(O)c1  Carbonic anhydrase 2 (Homo sapiens, UniProt P00918)             5.65
2  COc1cc(/C=C/C(=O)O)ccc1O [FERULATE]  Carbonic anhydrase 2 (Homo sapiens, UniProt P00918)             5.62
3               O=C(O)/C=C/c1ccc(O)cc1  Carbonic anhydrase 2 (Homo sapiens, UniProt P00918)             6.01

# input for lookup
Value of measured pKi for the entry O=c1c(O)c(-c2ccc(O)c(O)c2)oc2cc(O)cc(O)c12 : 5.60
